Reference source for all entries: ChEMBL document CHEMBL1154904

# test.name: Oral bioavailability in rat at 10 mg/kg
# Type: ADME, organism-based
# run.parameters: in vivo
In this section, each of the compounds is paired with its reported bioavailability.
measured.quantity: bioavailability (%)

structure.smiles: N#Cc1cnc(NCC(F)(F)c2ccccc2)c(=O)n1CC(=O)NCCON=C(N)N
measurement: 11

structure.smiles: N=C(N)NOCCNC(=O)Cn1c(Cl)cnc(NCC(F)(F)c2ccccc2)c1=O
measurement: 9

structure.smiles: Cc1cnc(NCC(F)(F)c2ccccc2)c(=O)n1CC(=O)NCCONC(=N)N
measurement: 23

---

# test.name: in vitro
# run.parameters: human, Caco-2

structure.smiles: Cc1cnc(NCC(c2ccccc2)c2ccccc2)c(=O)n1CC(=O)NCCONC(=N)N
Papp B→A / ×10⁻⁶ cm/s: 13
//
structure.smiles: Cc1ccc(CCNc2ncc(C)n(CC(=O)N(C)CCON=C(N)N)c2=O)cc1
Papp B→A / ×10⁻⁶ cm/s: 0.6
//
structure.smiles: N=C(N)NOCCNC(=O)Cn1c(Cl)cnc(NCC(F)(F)c2ccccc2)c1=O
Papp B→A / ×10⁻⁶ cm/s: 3.04
//
structure.smiles: Cc1cnc(NCCc2cccc3ccccc23)c(=O)n1CC(=O)NCCON=C(N)N
Papp B→A / ×10⁻⁶ cm/s: 11.8
//
structure.smiles: Cc1cnc(NCCc2ccc(F)cc2F)c(=O)n1CC(=O)NCCONC(=N)N
Papp B→A / ×10⁻⁶ cm/s: 1.91
//
structure.smiles: Cc1cnc(NCCc2ccc(F)cc2)c(=O)n1CC(=O)NCCONC(=N)N
Papp B→A / ×10⁻⁶ cm/s: 1.48
